# Assayed Target: Kv1.5 potassium channel subunit (Homo sapiens)
# Sequence (P22460 whole entry): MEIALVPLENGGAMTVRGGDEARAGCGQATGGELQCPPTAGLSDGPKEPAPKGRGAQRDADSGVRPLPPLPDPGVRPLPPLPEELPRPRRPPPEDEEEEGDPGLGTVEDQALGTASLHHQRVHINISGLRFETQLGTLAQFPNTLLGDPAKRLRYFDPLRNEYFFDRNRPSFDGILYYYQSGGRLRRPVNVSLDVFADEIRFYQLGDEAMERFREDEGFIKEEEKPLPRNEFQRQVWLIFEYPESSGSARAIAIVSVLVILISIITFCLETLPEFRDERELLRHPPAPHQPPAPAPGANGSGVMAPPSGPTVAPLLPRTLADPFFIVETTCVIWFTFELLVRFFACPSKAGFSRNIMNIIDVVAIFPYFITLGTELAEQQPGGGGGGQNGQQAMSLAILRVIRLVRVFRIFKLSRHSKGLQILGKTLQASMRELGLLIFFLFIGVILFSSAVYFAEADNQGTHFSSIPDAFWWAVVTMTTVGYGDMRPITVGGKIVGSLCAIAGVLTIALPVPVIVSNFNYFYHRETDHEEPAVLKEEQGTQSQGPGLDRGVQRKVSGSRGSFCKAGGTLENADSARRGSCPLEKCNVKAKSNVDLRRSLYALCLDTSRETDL
# Assay Notes: Electrophysiological studies (whole cell patch clamp)
# Type: cell-based
# Conditions Used: inhibition of Kv1.5 potassium currents, Chinese hamster ovary cells stably expressing Kv1.5
Value Kind: IC50 (µM)
Write the number in µM without appending the unit.

Solved entries (count: 5):
1) COc1ccc(CCN2C(=O)CSC2c2ccc(C)c(C)c2)cc1 (centres unmarked) [52 of Table 1]: 0.2
2) CCCCCCN1C(=O)CSC1c1cccc(OC)c1 (centres unmarked) [77 of Table 1]: 1.6
3) Cc1ccc(C2SCC(=O)N2CCCCc2ccccc2)cc1C (centres unmarked) [60 of Table 1]: 0.3
4) COc1ccc(CN2C(=O)CSC2c2cccc(OC)c2)cc1 (centres unmarked) [36 of Table 1]: 4.7
5) CCc1ccc(C2SCC(=O)N2CCc2ccc(OC)cc2)s1 (centres unmarked) [67 of Table 1]: 0.7

Look up IC50 for this compound: COc1ccc(CCN2C(=O)C(C)SC2c2ccc3c(c2)OCCO3)cc1 (centres unmarked) [45 of Table 1] 0.6

Thanks! And COc1ccc(CCN2C(=O)CSC2c2cccc(OC)c2)cc1 (centres unmarked) [1 of Table 1] ? 0.6

Thanks! And COc1ccc(CCN2C(=O)CCSC2c2ccc3c(c2)OCO3)cc1 (centres unmarked) [18 of Table 2] ? 1

Thanks! And COc1ccc(CCN2C(=O)CCSC2c2ccc(C)c(C)c2)cc1 (centres unmarked) [2 of Table 2] ? 0.3

Thanks! And COc1cccc(CCN2C(=O)CSC2c2ccc3c(c2)OCO3)c1 (centres unmarked) [8 of Table 1] ? 1.2

Thanks! And COc1ccc(CCN2C(=O)CSC2c2ccc(OC)c(OC)c2)cc1 (centres unmarked) [5 of Table 1] ? 6

The reported numbers originate from patent US6395730B1.
